# study.system: BTK enzyme (recombinant full-length BTK, hBTK) (Homo sapiens (Human))
# Sequence (Q06187 whole entry): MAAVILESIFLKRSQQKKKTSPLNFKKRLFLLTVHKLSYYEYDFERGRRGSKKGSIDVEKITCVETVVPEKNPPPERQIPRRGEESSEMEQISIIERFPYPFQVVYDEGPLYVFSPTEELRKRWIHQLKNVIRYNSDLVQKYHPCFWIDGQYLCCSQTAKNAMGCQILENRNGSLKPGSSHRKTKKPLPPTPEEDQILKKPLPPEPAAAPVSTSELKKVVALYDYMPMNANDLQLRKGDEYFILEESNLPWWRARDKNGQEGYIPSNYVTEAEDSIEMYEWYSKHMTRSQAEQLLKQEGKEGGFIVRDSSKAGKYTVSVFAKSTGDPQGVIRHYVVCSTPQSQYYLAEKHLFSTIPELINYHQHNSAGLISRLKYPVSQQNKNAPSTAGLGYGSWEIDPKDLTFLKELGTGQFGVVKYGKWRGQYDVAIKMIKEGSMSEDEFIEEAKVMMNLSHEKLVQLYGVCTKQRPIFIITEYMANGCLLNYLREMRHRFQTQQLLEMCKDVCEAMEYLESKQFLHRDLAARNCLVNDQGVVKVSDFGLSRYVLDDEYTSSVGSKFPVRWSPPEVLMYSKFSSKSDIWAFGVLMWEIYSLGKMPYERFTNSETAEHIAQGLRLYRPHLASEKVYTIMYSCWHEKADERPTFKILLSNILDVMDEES
# assay.protocol: BTK enzymatic activity LANCE TR-FRET assay
# setup.conditions: 50 pM hBTK, 25 μM ATP, 2 μM biotin-A5-peptide; compound range 1 μM to 0.017 nM; read-out: BTK binding IC50
pIC50: −log10 of the molar value.
Parameter class (string): assigned from measured pIC50. Ranges: lower segment: < 7; middle segment: ≥ 7 and < 9; upper segment: ≥ 9

The entry to classify is "C[C@@](O)(c1ccc(-c2nc([C@@H]3CC[C@H]4CCC(=O)N4C3)n3c(F)cnc(N)c23)cc1)c1cccc(C(F)(F)F)c1" ; which class holds it?
middle segment

Given Nc1nccn2c([C@@H]3CC[C@H]4CCC(=O)N4C3)nc(-c3ccc(C(O)(c4cccc(F)c4)C(F)(F)F)cc3)c12 (stereo partly drawn) , name the class its pIC50 places it in.
middle segment

Dear colleague, I would appreciate it if you could identify the bin for Cn1nc(C(C)(O)c2ccc(-c3nc([C@@H]4CC[C@H]5CCC(=O)N5C4)n4ccnc(N)c34)cc2)cc1C(F)(F)F (stereo partly drawn) and reply at your convenience.
lower segment

Band of Nc1nccn2c([C@@H]3CC[C@H]4CCC(=O)N4C3)nc(-c3ccc(C(O)(c4cccc(C(F)(F)F)c4)C(F)F)cc3)c12 (stereo partly drawn) [Example 108] ?
lower segment

Which category does the recorded pIC50 put "CC1(C)OC(=O)N2C[C@H](c3nc(-c4ccc([C@@](C)(O)c5cccc(C(F)F)c5)cc4)c4c(N)nccn34)OC[C@H]21" in?
middle segment

Which of the defined bands does the recorded pIC50 of "C[C@@](O)(c1ccc(-c2nc([C@@H]3CC[C@H]4CCC(=O)N4C3)n3ccnc(N)c23)cc1)c1cccc(Cl)c1" sit within?
upper segment

Which of the defined bands does the recorded pIC50 of "C[C@@](O)(c1ccc(-c2nc([C@@H]3CC[C@H]4CCC(=O)N4C3)n3ccnc(N)c23)cc1)c1cccc(C#N)c1" sit within?
middle segment

Which bin, given its pIC50, does "CC(F)(F)c1cccc([C@](C)(O)c2ccc(-c3nc([C@@H]4CC[C@H]5CCC(=O)N5C4)n4c(Cl)cnc(N)c34)cc2)c1" occupy?
upper segment

Note: place this compound into its band. Item: C[C@](O)(c1ccc(-c2nc([C@@H]3CC[C@H]4CCC(=O)N4C3)n3ccnc(N)c23)cc1)c1ccc(C(F)(F)F)s1 [Example 111]
lower segment

Which pIC50 band matches "C[C@](O)(c1ccc(-c2nc([C@@H]3CC[C@H]4CCC(=O)N4C3)n3ccnc(N)c23)cc1)c1cccc(-n2ccnc2)c1" ?
lower segment

Please report the category associated with COc1cc(C(C)(O)c2cccc(C(F)(F)F)c2)ccc1-c1nc([C@@H]2CC[C@@H]3N(C2)C(=O)CC3(C)C)n2ccnc(N)c12 (stereo partly drawn) [Example 205] , nothing else.
middle segment

Tag the class for "C[C@](O)(c1ccc(-c2nc([C@@H]3CC[C@H]4CCC(=O)N4C3)n3ccnc(N)c23)cc1)c1ccccc1F"
lower segment

// bin(item) where item = "C[C@@](O)(c1ccc(-c2nc([C@@H]3CC[C@H]4CCC(=O)N4C3)n3ccnc(N)c23)cc1)c1ccccc1F"
middle segment

====

# System: adenosine uptake into HeLa cells
# assay.protocol: [3H]Adenosine uptake assay in HeLa cells
# Assay type: cell-based
# setup.conditions: Homo sapiens, HeLa, [3H]adenosine accumulation in HeLa cells; compound range 10 μM to 0.032 nM; read-out: ADU inhibition IC50
Assign pIC50 to each entry below.
Please express pIC50 as -log10 of the molar concentration.

Specify measured pIC50 for "C[C@@](O)(c1ccc(-c2nc([C@@H]3CC[C@H]4CCC(=O)N4C3)n3ccnc(N)c23)cc1)c1cccc(Cl)c1" .
5.42

Supply measured pIC50 of "COc1cc([C@](C)(O)c2cccc(C(F)(F)F)c2)ccc1-c1nc([C@@H]2CC[C@H]3CCC(=O)N3C2)n2ccnc(N)c12" in your reply.
5.14

Give the value of pIC50 reported for the following: "C[C@@](O)(c1ccc(-c2nc([C@@H]3CC[C@H]4CCC(=O)N4C3)n3c(F)cnc(N)c23)cc1)c1cccc(C(F)F)c1"
5.35

Retrieve pIC50 measured for Cn1nc(C(C)(O)c2ccc(-c3nc([C@@H]4CC[C@H]5CCC(=O)N5C4)n4ccnc(N)c34)cc2)cc1C(F)(F)F (stereo partly shown) and print it.
5.65

====

# study.system: BTK enzyme (recombinant full-length BTK, hBTK) (Homo sapiens (Human))
# assay.protocol: BTK enzymatic activity LANCE TR-FRET assay
# Type: biochemical
# setup.conditions: 50 pM hBTK, 25 μM ATP, 2 μM biotin-A5-peptide; compound range 1 μM to 0.017 nM; read-out: BTK binding IC50
result.type: pIC50
// field semantics: pIC50 = negative decimal log of concentration (mol/L)

// fetch pIC50 given entry "C[C@@](O)(c1ccc(-c2nc([C@@H]3CC[C@H]4CCC(=O)N4C3)n3ccnc(N)c23)cc1)c1cccc(C(F)(F)F)n1"
7.60

State, in one line, measured pIC50 of CC(O)(c1cccc(C(F)F)c1)c1ccc(-c2nc([C@@H]3CC[C@H]4CCC(=O)N4C3)n3ccnc(N)c23)c(F)c1 (stereo partly drawn) [Example 192]
6.96

Fill in pIC50 for record "CC(F)(F)c1cccc([C@](C)(O)c2ccc(-c3nc([C@@H]4CC[C@H]5CCC(=O)N5C4)n4ccnc(N)c34)cc2)c1"
9.52

====

# System: adenosine uptake into HeLa cells
# assay.protocol: [3H]Adenosine uptake assay in HeLa cells
# Assay type: cell-based
# setup.conditions: Homo sapiens, HeLa, [3H]adenosine accumulation in HeLa cells; compound range 10 μM to 0.032 nM; read-out: ADU inhibition IC50
result.type: IC50 (µM)
Write the number in µM without appending the unit.

Provide IC50 value for the following molecule: CN1CC[C@H]2CC[C@H](c3nc(-c4ccc([C@@](C)(O)c5cccc(C(F)(F)F)c5)cc4)c4c(N)nccn34)CN2C1=O [Example 118]
1.49

Please indicate IC50 recorded for CC(C)(c1cccc([C@@](C)(O)c2ccc(-c3nc([C@@H]4CC[C@H]5CCC(=O)N5C4)n4c(Cl)cnc(N)c34)cc2)c1)C(F)(F)F [Example 123]
0.945

Quick one: give measured IC50 for CC1(C)OC(=O)N2C[C@H](c3nc(-c4ccc([C@@](C)(O)c5cccc(C(F)F)c5)cc4)c4c(N)nccn34)OC[C@H]21 [Example 187]
2.64

Retrieve IC50 measured for CCc1cccc([C@](C)(O)c2ccc(-c3nc([C@@H]4CC[C@H]5CCC(=O)N5C4)n4ccnc(N)c34)cc2)c1 [Example 93] and print it.
1.38

Given the molecule COc1cc(-c2nc([C@@H]3CC[C@H]4CCC(=O)N4C3)n3ccnc(N)c23)ccc1[C@](C)(O)c1cccc(C2CC2)c1 [Example 98] , write its reported IC50.
3.17

Provide IC50 value for the following molecule: C[C@](O)(c1ccc(-c2nc([C@@H]3CC[C@H]4CCC(=O)N4C3)n3ccnc(N)c23)cc1)c1cccc(Cl)c1 [Example 41]
0.588

Please list IC50 recorded for the molecule COc1cc([C@@](C)(O)c2cccc(C(F)(F)F)c2)ccc1-c1nc([C@@H]2CC[C@H]3CC(C)(C)C(=O)N3C2)n2ccnc(N)c12 [Example 206]
5.46

Please report the measured IC50 for CC(O)(c1cccc(C(F)(F)F)c1)c1ccc(-c2nc([C@@H]3CC[C@H]4CCC(=O)N4C3)n3ccnc(N)c23)c(C2CC2)c1 (stereo partly shown) [Example 88]
1.1

Consider the molecule C[C@@H]1OC(=O)N2C[C@H](c3nc(-c4ccc([C@@](C)(O)c5cccc(C(F)(F)F)c5)cc4)c4c(N)nccn34)OC[C@@H]12 [Example 9] and give its recorded IC50.
5.54

Check the records and state IC50 for COc1cccc([C@@](C)(O)c2ccc(-c3nc([C@@H]4CC[C@H]5CCC(=O)N5C4)n4ccnc(N)c34)cc2)c1 [Example 44]
1.78

Identify the reported IC50 for the following entry. CCc1cccc([C@@](C)(O)c2ccc(-c3nc([C@@H]4CC[C@H]5CCC(=O)N5C4)n4ccnc(N)c34)cc2)c1 [Example 92]
0.619

Report measured IC50; entry is C[C@@](O)(c1ccc(-c2nc([C@@H]3CC[C@H]4CCC(=O)N4C3)n3c(F)cnc(N)c23)cc1)c1cccc(C(F)(F)F)c1 [Example 158]
6.3

Complete the entry with IC50 for C[C@@](O)(c1ccc(-c2nc([C@@H]3CC[C@H]4COCC(=O)N4C3)n3ccnc(N)c23)cc1)c1cccc(C(F)(F)F)c1 [Example 157]
2.22

Provide only the value of recorded IC50 for C[C@](O)(c1ccc(-c2nc([C@@H]3CC[C@H]4CCC(=O)N4C3)n3ccnc(N)c23)cc1)c1ccccc1F [Example 68]
5.55

Annotate the molecule CC(C)N1CC(=O)N2C[C@@H](c3nc(-c4ccc([C@@](C)(O)c5cccc(C(F)(F)F)c5)cc4)c4c(N)nccn34)CC[C@@H]2C1 [Example 120] with its measured IC50.
4.67

Read the entry C[C@@](O)(c1ccc(-c2nc([C@@H]3CC[C@H]4CCC(=O)N4C3)n3ccnc(N)c23)cc1)c1cccc(C2CC2)c1 [Example 38] and write its reported IC50.
1.84

Consider the molecule CCOc1cc([C@@](C)(O)c2cccc(C(F)(F)F)c2)cc(F)c1-c1nc([C@@H]2CC[C@H]3CCC(=O)N3C2)n2ccnc(N)c12 [Example 212] . State its measured IC50.
3.52

Return IC50 (reported value) for this molecule: Nc1nccn2c([C@@H]3CC[C@H]4CCC(=O)N4C3)nc(-c3ccc(C(O)(c4ccccc4)C(F)(F)F)cc3F)c12 (stereo partly shown) [Example 30]
1.31

Provide measured IC50 value, entry: CC1(C)CC(=O)N2C[C@@H](c3nc(-c4ccc([C@@](C)(O)c5cccc(C(F)(F)F)c5)cc4)c4c(N)nccn34)CC[C@@H]21 [Example 161]
2.14
